# Tested on: Escherichia coli TOP10;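 further: peptides expressed intracellularly from a pBAD plasmid library in pooled LB shake-flask culture, induced with 0.3% L-arabinose, DNA abundance read by NGS, three biological replicates, DESeq2 with apeglm shrinkage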
# Assay comment: shrunken log2 fold change of peptide-encoding DNA abundance (4.5 h post-induction vs induction); higher = less antimicrobial activity (less host growth inhibition)
# Test context: time post-induction: 4.5 h; library: site-saturation at positions 5, 18, 19, 20
Would you mind classing the entries by shrunken log2 fold change? Ranges: one: < -0.2; two: ≥ -0.2 and < 0.06; three: ≥ 0.06

[[record]]
residue_sequence = "RRIRYRPPRLPRPRPRPGWCPRP"
class_label = "two"

[[record]]
residue_sequence = "RRIRERPPRLPRPRPRPNHYPRP"
class_label = "one"

[[record]]
residue_sequence = "RRIRHRPPRLPRPRPRPYMSPRP"
class_label = "one"

[[record]]
residue_sequence = "RRIRERPPRLPRPRPRPNDAPRP"
class_label = "two"

[[record]]
residue_sequence = "RRIRWRPPRLPRPRPRPFNRPRP"
class_label = "two"

[[record]]
residue_sequence = "RRIRGRPPRLPRPRPRPTQYPRP"
class_label = "three"

[[record]]
residue_sequence = "RRIRPRPPRLPRPRPRPRVVPRP"
class_label = "three"

[[record]]
residue_sequence = "RRIRQRPPRLPRPRPRPIPSPRP"
class_label = "two"

[[record]]
residue_sequence = "RRIRLRPPRLPRPRPRPKSHPRP"
class_label = "one"

[[record]]
residue_sequence = "RRIRYRPPRLPRPRPRPPKLPRP"
class_label = "two"

[[record]]
residue_sequence = "RRIRRRPPRLPRPRPRPKLEPRP"
class_label = "three"

[[record]]
residue_sequence = "RRIRARPPRLPRPRPRPFGFPRP"
class_label = "three"

[[record]]
residue_sequence = "RRIRPRPPRLPRPRPRPCEPPRP"
class_label = "two"

[[record]]
residue_sequence = "RRIRARPPRLPRPRPRPDPYPRP"
class_label = "two"

[[record]]
residue_sequence = "RRIRWRPPRLPRPRPRPTIRPRP"
class_label = "one"

[[record]]
residue_sequence = "RRIRWRPPRLPRPRPRPCPNPRP"
class_label = "two"

[[record]]
residue_sequence = "RRIRFRPPRLPRPRPRPTIIPRP"
class_label = "one"

[[record]]
residue_sequence = "RRIRFRPPRLPRPRPRPMQIPRP"
class_label = "two"

[[record]]
residue_sequence = "RRIRKRPPRLPRPRPRPVALPRP"
class_label = "two"

[[record]]
residue_sequence = "RRIRGRPPRLPRPRPRPIWSPRP"
class_label = "three"

[[record]]
residue_sequence = "RRIRNRPPRLPRPRPRPGRDPRP"
class_label = "three"

[[record]]
residue_sequence = "RRIRHRPPRLPRPRPRPNDGPRP"
class_label = "two"

[[record]]
residue_sequence = "RRIRYRPPRLPRPRPRPVFKPRP"
class_label = "one"

[[record]]
residue_sequence = "RRIRARPPRLPRPRPRPPAAPRP"
class_label = "three"

[[record]]
residue_sequence = "RRIRQRPPRLPRPRPRPNQIPRP"
class_label = "one"

[[record]]
residue_sequence = "RRIRERPPRLPRPRPRPPFMPRP"
class_label = "two"

[[record]]
residue_sequence = "RRIRWRPPRLPRPRPRPAMQPRP"
class_label = "three"

[[record]]
residue_sequence = "RRIRFRPPRLPRPRPRPHMVPRP"
class_label = "one"

[[record]]
residue_sequence = "RRIRFRPPRLPRPRPRPVPCPRP"
class_label = "two"

[[record]]
residue_sequence = "RRIRMRPPRLPRPRPRPAENPRP"
class_label = "three"

[[record]]
residue_sequence = "RRIRDRPPRLPRPRPRPPMTPRP"
class_label = "three"

